- systemUnderTest: OTU domain-containing protein 3 (Homo sapiens) (UniProt Q5T2D3)
- Sequence (Q5T2D3 whole entry, looked up, the tested form may be a part): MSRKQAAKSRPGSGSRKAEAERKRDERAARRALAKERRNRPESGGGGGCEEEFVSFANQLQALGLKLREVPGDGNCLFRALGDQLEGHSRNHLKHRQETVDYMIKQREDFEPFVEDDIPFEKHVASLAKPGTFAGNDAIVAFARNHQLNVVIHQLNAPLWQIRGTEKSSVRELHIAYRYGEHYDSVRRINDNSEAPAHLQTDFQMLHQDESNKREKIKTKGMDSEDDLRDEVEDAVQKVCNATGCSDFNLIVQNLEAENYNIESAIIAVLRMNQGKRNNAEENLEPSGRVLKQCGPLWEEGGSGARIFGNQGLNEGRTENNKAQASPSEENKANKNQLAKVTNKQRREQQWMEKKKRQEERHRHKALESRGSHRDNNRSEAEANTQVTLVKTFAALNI
- experimentNotes: Validation of screening hits, potency titration, in vitro enzymatic, OTU domain-containing protein 3 DUB inhibitors (AID 1645868)
- conditionInfo: purified OTUD3, ubiquitin-rhodamine cleavage fluorescence, 2 h
The source made the active and inactive calls.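 The calls were made as follows: active = maximal percent inhibition of the deubiquitinase OTUD3 of at least 30% across the tested doses; inactive = the rest.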
Outcome (select one): active, inactive

compound | systemUnderTest | category
O=C(Nc1cccc(-c2nc3ccccc3[nH]2)c1)c1cc2ccccc2oc1=O | OTU domain-containing protein 3 (Homo sapiens) (UniProt Q5T2D3) | active
CCOc1ccccc1NC(=O)Cn1c(=O)n(CCCC(=O)NCc2ccc(C)cc2)c(=O)c2sccc21 | OTU domain-containing protein 3 (Homo sapiens) (UniProt Q5T2D3) | active
COc1cccc(NC(=O)c2cnc3c(c2)c(=O)n(C)c(=O)n3C)c1 | OTU domain-containing protein 3 (Homo sapiens) (UniProt Q5T2D3) | active
CN1c2ccccc2CN(CC(N)=O)CC1Cc1ccccc1 (stereo not drawn) | OTU domain-containing protein 3 (Homo sapiens) (UniProt Q5T2D3) | inactive
O=C(Cn1c(=O)n(Cc2ccc3c(c2)OCO3)c(=O)c2ncccc21)c1ccc(Cl)cc1 | OTU domain-containing protein 3 (Homo sapiens) (UniProt Q5T2D3) | active

Assay result, entry `Cc1nc(SCC(=O)Nc2cc(Cl)ccc2C)c2oc3ccccc3c2n1` — outcome? inactive

Assay result, entry C=C1CCC2[C@](C)(CCC[C@]2(C)C(=O)OC)[C@H]1CCc1ccoc1/C=C/C(=O)O (stereo partly drawn) — outcome? inactive

Assay result, entry `CN1CCN(C(=O)c2cc(-c3ccn(-c4ccccc4)n3)n3ccccc23)CC1` — outcome? inactive

* * *

- systemUnderTest: OTU domain-containing protein 3 (Homo sapiens) (UniProt Q5T2D3)
- experimentNotes: Validation of screening hits, potency titration, in vitro enzymatic, OTU domain-containing protein 3 DUB inhibitors (AID 1645868)
- conditionInfo: purified OTUD3, ubiquitin-rhodamine cleavage fluorescence, 2 h
Active and inactive are the calls of the source.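 How the source made its calls: active means maximal percent inhibition of the deubiquitinase OTUD3 of at least 30% across the tested doses; inactive means the rest.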
Outcome (select one): active, inactive

Assay result, entry CC1CCc2c(sc3nc(CC#N)[nH]c(=O)c23)C1 (stereo unspecified) — outcome? inactive

Assay result, entry `Cc1ccc(NC(=O)c2ccc3nn(CC(=O)Nc4ccc(F)cc4F)c(=O)n3c2)cc1` — outcome? inactive

Assay result, entry COc1ccc(NC(=O)C2CC(=O)Nc3cc(-c4ccccc4)nn32)cc1 (stereo unspecified) — outcome? active

Assay result, entry COc1cc2c(c3oc4cccc(O)c4c(=O)c13)C1C=COC1O2 (stereo unspecified) — outcome? inactive

Assay result, entry Cc1cccc(CNC(=O)C2CCCN(S(=O)(=O)Cc3ccc(F)cc3)C2)c1 (stereo unspecified) — outcome? active

Assay result, entry `O=C(CN1C(=O)COc2ccc(Cl)cc21)Nc1cccc2ncccc12` — outcome? inactive

Assay result, entry `COc1ccc(CCNC(=O)c2ccc3ccccc3c2)cc1OC` — outcome? inactive

Assay result, entry `COC(=O)c1ccc(Cn2cnc3ccc(F)cc3c2=O)o1` — outcome? inactive

Assay result, entry `Cn1c(=O)sc2cc(NC(=O)c3ccc(Br)cc3)ccc21` — outcome? active

Assay result, entry `Cc1noc(C)c1CN1CC[C@H]2O[C@H](C(=O)NCc3ccco3)CC[C@H]21` — outcome? inactive

Assay result, entry `Cn1c(=O)[nH]c(=O)c2c1nc1n(CCc3ccccc3)c(-c3ccccc3)cn21` — outcome? inactive
